tested on: MDR1-MDCK cell monolayers; assay: Blood-brain-barrier (BBB) penetration potential via MDCK-MDR1 permeability assay; conditions: A-B direction
Can you tell me MDCK-MDR1: % Recov A-B for the items I'm about to list?
Please don't drop the unit; write it after the number.

q: Would you mind telling me what MDCK-MDR1: % Recov A-B value was observed for CN(c1ccc(-c2cc3ccn(C)c(=O)c3cc2O)nn1)[C@@H]1C[C@H]2CC[C@H](N2)[C@@H]1F [Compound 84A] ?
a: 92%

q: Would you mind telling me what MDCK-MDR1: % Recov A-B value was observed for CN(C)C(=O)c1cc2cc(O)c(-c3ccc(N(C4CC4)[C@H]4C[C@@H]5CC[C@@H](N5)[C@H]4F)nn3)cc2o1 [Compound 86B] ?
a: 88%

q: Would you mind telling me what MDCK-MDR1: % Recov A-B value was observed for CN(c1ccc(-c2cc3oc(=O)n(C)c3cc2O)nn1)[C@H]1C[C@@H]2CC[C@@H](N2)[C@H]1F (single isomer, unassigned) [Compound 79B] ?
a: 90%
